Below, each entry is listed with its recorded % DAMGO (0.1 μM).
Tested on: mu opiate receptor (MOR)
PROCEDURE_DETAILS: MOR agonist activity using [35S]GTPγS binding assay in striatal membranes
Assay type: biochemical
RECORDED_CONDITIONS: Series C-2; 0.1 μM compound, relative to DAMGO

MOLECULE	% DAMGO (0.1 μM) / %
CC(=O)c1ccc(S(=O)(=O)N2CCC3(CC2)NCCS3)cc1	114.8
CS(=O)(=O)c1ccc(S(=O)(=O)N2CCOC23CCNCC3)cc1 [Compound C0116M]	136.6
CCN1CCC2(CC1)OCCN2S(=O)(=O)c1ccc(OC)cc1 [Compound C0089M]	136.3
CC(=O)c1ccc(S(=O)(=O)N2CCOC23CCN(CC(=O)O)CC3)cc1 [Compound C0100M]	103.6
O=C1CNC2(CCNCC2)N1Cc1ccccc1 [Compound C0114M]	77.6
CC(=O)c1ccc(S(=O)(=O)N2CCC3(CC2)NC(=O)CO3)cc1 [Compound C0087M]	138.9
O=S(=O)(c1ccccc1Oc1ccccc1)N1CCC2(CC1)NCCO2 [Compound C0149M-2]	122.0
CC(=O)c1ccc(S(=O)(=O)N2CCOC23CCN(C)CC3)cc1 [Compound C0093M]	81.3
O=[N+]([O-])c1ccc(S(=O)(=O)N2CCC3(CC2)NCCO3)cc1	93.1

====

Below, each entry is listed with its recorded inhibition at 0.01 µM.
TESTED_SYSTEM: FLNA pentapeptide of SEQ ID NO: 1 (Bn-VAKGL) (Homo sapiens, UniProt P21333)
PROCEDURE_DETAILS: FITC-NLX-based FLNA screening assay (inhibition of FITC-naloxone binding to Bn-VAKGL on streptavidin plates)
RECORDED_CONDITIONS: read-out: Percent Binding Inhibition, FLNA-binding compound 0.01 μM; 10 nM FITC-NLX

COMPOUND	inhibition at 0.01 µM (%)
COc1ccc(NC(=O)N2CCC3(CC2)OCCN3S(=O)(=O)c2ccc(OC)cc2)cc1	38.3
COc1ccc(CCC(O)CC2c3c(cc4c(c3OC)OCO4)CC[N+]2(C)C)cc1 (centres unmarked)	32.2
COc1c2c(cc3c1C(CC(=O)Cc1ccc(C#N)cc1)[N+](C)(C)CC3)OCO2 (centres unmarked)	39.4
O=S(=O)(c1ccc2ccccc2c1)N1CCC2(CC1)OCCN2S(=O)(=O)c1ccc2ccccc2c1 [Compound C0140M]	42.3
Cc1ccccc1S(=O)(=O)N1CCC2(CC1)OCCN2S(=O)(=O)c1ccccc1C	31.2
COc1ccc(C(=O)CC2c3c(cc4c(c3OC)OCO4)CC[N+]2(C)C)cc1C (centres unmarked)	32.5
O=S(=O)(c1ccc(F)cc1)N1CCC2(CC1)OCCN2S(=O)(=O)c1ccc(F)cc1	38.6
COc1ccc(CCC(=O)CC2c3c(cc4c(c3OC)OCO4)CC[N+]2(C)C)cc1OC (centres unmarked)	40.8
CCOc1ccc(C(=O)CC2c3c(cc4c(c3OC)OCO4)CC[N+]2(C)C)cc1F (centres unmarked)	38.1
CC1CCC(C(C)C)C(OCC(O)CN2CCCC2)C1 (centres unmarked)	39.7
O=C1CN(Cc2ccccc2)C2(CCN(CC3CC3)CC2)N1 [Compound C0125M]	54.2
COc1cccc(S(=O)(=O)N2CCC3(CC2)OCCN3S(=O)(=O)c2cccc(OC)c2)c1	38.4
CC1CN(CC(O)COc2ccc(Br)c(F)c2)CC(C)O1 (centres unmarked)	45.8
COc1ccc(CCC(=O)CC2c3c(cc4c(c3OC)OCO4)CC[N+]2(C)C)c(OC)c1 (centres unmarked)	30.8
COc1c2c(cc3c1C(CC(=O)c1ccc(C#N)cc1)[N+](C)(C)CC3)OCO2 (centres unmarked)	37.1
CC1CCC(C(C)C)C(OCC(O)CN2CCc3ccccc3C2)C1 (centres unmarked)	45
COc1ccc(C(=O)CC2c3c(cc4c(c3OC)OCO4)CC[N+]2(C)C)cc1 (centres unmarked)	34.8

// provenance: patent US10363239B2
